Just for reference, paper PMC4898059 is where these values come from.

Molecular target: saMenB (Staphylococcus aureus)
Sequence (Q5HH38 whole entry): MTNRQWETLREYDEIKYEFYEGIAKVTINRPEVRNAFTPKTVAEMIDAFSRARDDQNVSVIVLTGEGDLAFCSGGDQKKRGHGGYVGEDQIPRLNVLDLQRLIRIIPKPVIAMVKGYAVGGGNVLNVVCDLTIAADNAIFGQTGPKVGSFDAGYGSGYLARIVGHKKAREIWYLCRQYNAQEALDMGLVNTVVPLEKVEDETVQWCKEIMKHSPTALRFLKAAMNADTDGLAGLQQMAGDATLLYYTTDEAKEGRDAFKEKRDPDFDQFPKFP
readout.kind: Kd (µM)
# output: bare number, implied unit µM

Q: # get_value(readout= Kd, system= saMenB (Staphylococcus aureus)) for CC(C)(COP(=O)(O)OP(=O)(O)OC[C@H]1O[C@@H](n2cnc3c(N)ncnc32)[C@H](O)[C@@H]1OP(=O)(O)O)[C@@H](O)C(=O)NCCC(=O)NCCS
Result: 25
